# Test system: (CAG)10 RNA (SEQ ID NO: 5)
# protocol: SPR binding to immobilized biotinylated RNA
Assign Residence time (t1/2) for compound binding to RNA to each entry below.
Express your answer in min, writing the number without its unit.

// returns reported Residence time (t1/2) for compound binding to RNA for input "CCc1nc2cc3ccccc3cc2cc1C(=O)N[C@@H](CCCCN)C(=O)N[C@@H](C/C=C\C[C@H](NC(=O)[C@H](CCCCN)NC(=O)c1cc2cc3ccccc3cc2nc1CC)C(=O)N1CCC[C@H]1C(=O)NCCCN)C(=O)N1CCC[C@H]1C(=O)NCCCN"
1.9477

Please answer likewise for "CCc1nc2cc3ccccc3cc2cc1C(=O)N1CCC[C@H]1C(=O)N[C@@H](C/C=C\C[C@H](NC(=O)[C@@H]1CCCN1C(=O)c1cc2cc3ccccc3cc2nc1CC)C(=O)N[C@@H](CCCCN)C(=O)NCCCN)C(=O)N[C@@H](CCCCN)C(=O)NCCCN"
3.9965

Also "CCc1nc2cc3ccccc3cc2cc1C(=O)N1CCC[C@H]1C(=O)N[C@@H](C/C=C/C[C@H](NC(=O)[C@@H]1CCCN1C(=O)c1cc2cc3ccccc3cc2nc1CC)C(=O)N[C@@H](CCCCN)C(=O)NCCCN)C(=O)N[C@@H](CCCCN)C(=O)NCCCN" , if possible.
4.2308

Now this one: "CCc1nc2cc3ccccc3cc2cc1C(=O)N[C@@H](CCCCN)C(=O)N[C@@H](C/C=C/C[C@H](NC(=O)[C@H](CCCCN)NC(=O)c1cc2cc3ccccc3cc2nc1CC)C(=O)N1CCC[C@H]1C(=O)NCCCN)C(=O)N1CCC[C@H]1C(=O)NCCCN"
3.3575

# repeat for "NCCCC[C@H](NC(=O)[C@H](C/C=C\C[C@H](NC(=O)[C@@H]1CCCN1)C(=O)N[C@@H](CCCCN)C(=O)NCCCN)NC(=O)[C@@H]1CCCN1)C(=O)NCCCN"
0.6015
